System: A2780
Assay: growth inhibition by cell counts, 72 h
Type: cell-based, human
Conditions: 72 h; read-out: A2780 IC50
RESULT_TYPE: IC50 (nM)
Numbers only here, please. The scale is nM.

Per the record, CCC(=O)OC1C(=O)C2(C)C(O)CC3OCC3(OC(C)=O)C2C(OC(=O)c2ccccc2)C2(O)CC(OC(=O)C(O)C(C=C(C)C)NC(=O)OC(C)(C)C)C(C)=C1C2(C)C (stereo not shown) [Taxoid Ib] has IC50 of 1.77

###

Test system: MCF7 (mammary carcinoma)
Assay: tumor cell growth inhibition (SRB, 72 h drug exposure)
Assay type: cell-based, human
Conditions: 72 h drug exposure, Table 3; read-out: MCF7 IC50
RESULT_TYPE: IC50 (nM)
Numbers only here, please. The scale is nM.

Here CCC(=O)OC1C(=O)C2(C)C(O)CC3OCC3(OC(C)=O)C2C(OC(=O)c2cccc(N=[N+]=[N-])c2)C2(O)CC(OC(=O)C(O)C(CC(C)C)NC(=O)OC(C)(C)C)C(C)=C1C2(C)C (centres unmarked) was tested on MCF7 (mammary carcinoma), and its IC50 came to 1

Here COc1cccc(C(=O)OC2C3C4(OC(C)=O)COC4CC(O)C3(C)C(=O)C(OC(C)=O)C3=C(C)C(OC(=O)C(O)C(C=C(C)C)NC(=O)OC(C)(C)C)CC2(O)C3(C)C)c1 (centres unmarked) was tested on MCF7 (mammary carcinoma), and its IC50 came to 0.8

Here CCC(=O)OC1C(=O)C2(C)C(O)CC3OCC3(OC(C)=O)C2C(OC(=O)c2cccc(N=[N+]=[N-])c2)C2(O)CC(OC(=O)C(O)C(C=C(C)C)NC(=O)OC(C)(C)C)C(C)=C1C2(C)C (centres unmarked) was tested on MCF7 (mammary carcinoma), and its IC50 came to 0.9

Here CCC(=O)OC1C(=O)C2(C)C(O)CC3OCC3(OC(C)=O)C2C(OC(=O)c2cccc(OC)c2)C2(O)CC(OC(=O)C(O)C(NC(=O)OC(C)(C)C)C(F)F)C(C)=C1C2(C)C (centres unmarked) was tested on MCF7 (mammary carcinoma), and its IC50 came to 0.4

Here CC(=O)OC1C(=O)C2(C)C(O)CC3OCC3(OC(C)=O)C2C(OC(=O)c2cccc(C)c2)C2(O)CC(OC(=O)C(O)C(C=C(C)C)NC(=O)OC(C)(C)C)C(C)=C1C2(C)C (centres unmarked) was tested on MCF7 (mammary carcinoma), and its IC50 came to 0.8

###

Tested on: MCF7 (mammary carcinoma)
Assay: tumor cell growth inhibition (SRB, 72 h drug exposure)
Type: cell-based, human
Settings: 72 h drug exposure, Table 3; read-out: MCF7 IC50
RESULT_TYPE: IC50 (nM)
Numbers only here, please. The scale is nM.

For orientation, consider the following solved cases.
| COMPOUND | RESULT_TYPE | UNIT_OF_MEASUREMENT | ENDPOINT_VALUE |
| --- | --- | --- | --- |
| CCC(=O)OC1C(=O)C2(C)C(O)CC3OCC3(OC(C)=O)C2C(OC(=O)c2cccc(OC)c2)C2(O)CC(OC(=O)C(O)C(NC(=O)OC(C)(C)C)[C@H]3CC3(C)C)C(C)=C1C2(C)C (stereo partly shown) [Taxoid 7j] | IC50 | nM | 0.6 |
| C=CCC(NC(=O)OC(C)(C)C)C(O)C(=O)OC1CC2(O)C(OC(=O)c3cccc(OC)c3)C3C4(OC(C)=O)COC4CC(O)C3(C)C(=O)C(OC(=O)CC)C(=C1C)C2(C)C (stereo not shown) [Taxoid 7i] | IC50 | nM | 0.8 |
| C=CCCC(NC(=O)OC(C)(C)C)C(O)C(=O)OC1CC2(O)C(OC(=O)c3cccc(OC)c3)C3C4(OC(C)=O)COC4CC(O)C3(C)C(=O)C(OC(=O)CC)C(=C1C)C2(C)C (stereo not shown) [Taxoid 7h] | IC50 | nM | 2 |

Per the record, CCC(=O)OC1C(=O)C2(C)C(O)CC3OCC3(OC(C)=O)C2C(OC(=O)c2cccc(OC)c2)C2(O)CC(OC(=O)C(O)C(C=C(C)C)NC(=O)OC(C)(C)C)C(C)=C1C2(C)C (stereo not shown) [Taxoid 7f] has IC50 of 0.36
